Test system: S. cerevisiae strain ARE Y121F T289A (AfCyp51A-6×His Y121F T289A, AfCprA2, AfErg6-FLAG)
ASSAY EXPLANATION: MIC80 susceptibility, strain Y121F T289A
Type: cell-based, Saccharomyces cerevisiae
CONDITION CONTEXT: Saccharomyces cerevisiae; Table 3; strain ARE Y121F T289A; ± SD; read-out: MIC80
QUANTITY KIND: MIC80 (µM)

[[record]]
query_smiles = "OC(Cn1cncn1)(Cn1cncn1)c1ccc(F)cc1F"
quantity_kind = "MIC80"
output_unit = "µM"
endpoint_value = 725

[[record]]
query_smiles = "CC[C@@H]([C@H](C)O)n1ncn(-c2ccc(N3CCN(c4ccc(OC[C@@H]5CO[C@@](Cn6cncn6)(c6ccc(F)cc6F)C5)cc4)CC3)cc2)c1=O"
quantity_kind = "MIC80"
output_unit = "µM"
endpoint_value = 0.101

[[record]]
query_smiles = "C[C@@H](c1nc(-c2ccc(C#N)cc2)cs1)[C@](O)(Cn1cncn1)c1cc(F)ccc1F"
quantity_kind = "MIC80"
output_unit = "µM"
endpoint_value = 0.11

[[record]]
query_smiles = "C[C@@H](c1nc(-c2ccc(C#N)cc2)cs1)[C@](O)(Cn1cncn1)c1ccc(F)cc1F"
quantity_kind = "MIC80"
output_unit = "µM"
endpoint_value = 0.033


====

EXPERIMENTAL TARGET: AfCYP51B-6×His (Aspergillus fumigatus)
Sequence (E9QY26 whole entry): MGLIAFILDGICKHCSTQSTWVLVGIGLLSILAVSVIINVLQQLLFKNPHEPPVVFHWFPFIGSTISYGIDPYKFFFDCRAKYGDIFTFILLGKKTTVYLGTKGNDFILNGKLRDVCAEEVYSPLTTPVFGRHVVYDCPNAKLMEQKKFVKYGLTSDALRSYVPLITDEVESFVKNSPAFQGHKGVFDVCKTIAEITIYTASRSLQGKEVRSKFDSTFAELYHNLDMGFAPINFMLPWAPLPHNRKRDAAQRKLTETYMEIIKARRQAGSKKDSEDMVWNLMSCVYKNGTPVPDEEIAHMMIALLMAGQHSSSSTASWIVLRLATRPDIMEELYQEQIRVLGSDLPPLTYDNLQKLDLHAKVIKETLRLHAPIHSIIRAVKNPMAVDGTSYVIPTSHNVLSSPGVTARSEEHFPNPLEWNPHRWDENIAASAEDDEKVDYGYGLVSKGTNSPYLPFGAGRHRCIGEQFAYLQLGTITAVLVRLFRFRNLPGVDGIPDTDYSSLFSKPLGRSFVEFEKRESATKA
ASSAY EXPLANATION: Type II binding of azole drugs (difference spectra)
CONDITION CONTEXT: 1 μM enzyme
QUANTITY KIND: λpeak (type II difference spectrum) (nm)

[[record]]
molecule = "O[C@@](Cn1cnnn1)(c1ccc(F)cc1F)C(F)(F)c1ccc(-c2ccc(OCC(F)(F)F)cc2)cn1"
endpoint_value = 423

[[record]]
molecule = "OC(Cn1cncn1)(Cn1cncn1)c1ccc(F)cc1F"
endpoint_value = 425

[[record]]
molecule = "C[C@@H](c1ncncc1F)[C@](O)(Cn1cncn1)c1ccc(F)cc1F"
endpoint_value = 427

[[record]]
molecule = "CC1COC(Cn2cncn2)(c2ccc(Oc3ccc(Cl)cc3)cc2Cl)O1 (stereo not shown)"
endpoint_value = 426

